tested.on: recombinant human Estrogen Receptor alpha ligand binding domain, residues 307-554 (ER alpha-LBD (GST)) (Homo sapiens, UniProt P03372)
Sequence (P03372 307-554): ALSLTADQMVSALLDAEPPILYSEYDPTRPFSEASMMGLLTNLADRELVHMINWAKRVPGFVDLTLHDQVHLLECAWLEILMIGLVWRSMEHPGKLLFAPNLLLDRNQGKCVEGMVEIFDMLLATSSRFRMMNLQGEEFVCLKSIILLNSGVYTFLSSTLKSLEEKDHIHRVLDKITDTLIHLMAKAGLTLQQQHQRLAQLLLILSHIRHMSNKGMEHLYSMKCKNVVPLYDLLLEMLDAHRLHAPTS
protocol.text: ERα binding assay (LanthaScreen TR-FRET competition)
particulars: TR-FRET competition with Fluormone ES2 tracer, 4 hours at room temperature; single experiment or average of two or more

| compound | IC50 |
| --- | --- |
| Cc1ncsc1-c1ccc([C@H](C)NC(=O)[C@@H]2C[C@@H](O)CN2C(=O)[C@@H](NC(=O)COCCc2ccc(COc3cc(F)c([C@@H]4c5[nH]c6ccccc6c5C[C@@H](C)N4CC(C)(C)F)c(F)c3)nc2)C(C)(C)C)cc1 | 0.7 nM |
| Cc1ncsc1-c1ccc(CNC(=O)[C@@H]2C[C@@H](O)CN2C(=O)[C@@H](NC(=O)CN2CC3(CCN(CCOc4cc(F)c([C@@H]5c6[nH]c7ccccc7c6C[C@@H](C)N5CC(C)(C)F)c(F)c4)CC3)C2)C(C)(C)C)cc1 | 1.3 nM |
| Cc1ncsc1-c1ccc(CNC(=O)[C@@H]2C[C@@H](O)CN2C(=O)[C@@H](NC(=O)COCCCOc2cc(F)c([C@@H]3c4[nH]c5ccccc5c4C[C@@H](C)N3CC(C)(C)F)c(F)c2)C(C)(C)C)cc1 | 0.7 nM |
| Cc1ncsc1-c1ccc(CNC(=O)[C@@H]2C[C@@H](O)CN2C(=O)[C@@H](NC(=O)c2cnn(CCOCCNC(=O)/C=C/c3cc(F)c([C@@H]4c5[nH]c6ccccc6c5C[C@@H](C)N4CC(C)(C)F)c(F)c3)c2)C(C)(C)C)cc1 | 0.4 nM |
| COC(=O)[C@@H](C)CN1[C@H](c2c(F)cc(OCCOCCOCCOCC(=O)N[C@H](C(=O)N3C[C@H](O)C[C@H]3C(=O)NCc3ccc(-c4scnc4C)cc3)C(C)(C)C)cc2F)c2[nH]c3ccccc3c2C[C@H]1C | 5.9 nM |
| Cc1ncsc1-c1ccc(CNC(=O)[C@@H]2C[C@@H](O)CN2C(=O)[C@@H](NC(=O)COCC/C=C/CCOc2ccc([C@@H]3c4[nH]c5ccccc5c4C[C@@H](C)N3CC(F)F)nc2)C(C)(C)C)cc1 | 13 nM |
| Cc1ncsc1-c1ccc(CNC(=O)[C@@H]2C[C@@H](O)CN2C(=O)[C@@H](NC(=O)COCCCOCCOc2cc(F)c([C@@H]3c4[nH]c5ccccc5c4C[C@@H](C)N3CC(F)(F)F)c(F)c2)C(C)(C)C)cc1 | 0.9 nM |
| Cc1ncsc1-c1ccc(CNC(=O)[C@@H]2C[C@@H](O)CN2C(=O)[C@@H](NC(=O)COCCOCCCCCOc2cc(F)c([C@@H]3c4[nH]c5ccccc5c4C[C@@H](C)N3CC(C)(F)F)c(F)c2)C(C)(C)C)cc1 | 0.8 nM |
